Target: cynomolgus monkey EpoR (cynoEpoR) (cynomolgus monkey)
Sequence (chain, as listed by the source): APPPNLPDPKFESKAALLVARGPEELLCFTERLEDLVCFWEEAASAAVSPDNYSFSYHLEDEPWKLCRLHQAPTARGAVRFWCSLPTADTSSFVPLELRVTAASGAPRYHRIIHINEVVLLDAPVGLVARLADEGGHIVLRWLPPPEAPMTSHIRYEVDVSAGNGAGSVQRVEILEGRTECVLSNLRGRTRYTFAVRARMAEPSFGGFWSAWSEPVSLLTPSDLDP
Assay: SPR, Biacore T100; scFv-Fc captured by anti-human IgG Fc on CM5 chip, EpoR as analyte

[
  {
    "binder": "clone 201 scFv-Fc protein (Fc fusion, part only; not given: scFv linker and IgG1 Fc, not shown: a dimerising Fc or GST) scFv, part: QVQLQESGSGLARPSQTLSLTCAVSGGSISSSAFSWNWIRQPPGKGLEWIGYIYHTGITDYNPSLKSRVTISVDRSKNQFSLNVNSVTAADTAVYYCARGHGSDPAWFDPWGKGTLVTVSSQSVLTQPPSVSVSPGQTASITCSGDKLGDKYASWYQQRPGQSPVLVIYRDTKRPSGIPERFSGSNSGNTATLTISGTQAVDEADYYCQAWDSTTSLVFGGGTKLTVL",
    "koff, s⁻¹": 0.0508
  }
]
